Each recorded value in this set is attributed to patent US20200002405A1.

Measured IC50 (neutralization), listed per entry.
Target: LASV Pinneo (lineage I) glycoprotein (Lassa virus, strain Pinneo)
Experiment: cell-based or functional assay
measuredEndpoint: IC50 (neutralization) (µg/mL)

1. 37.7H (antibody, V domains shown) VH: EVQLVQSGGGLVKAGGSLRLSCAASGFTFSTYSMNWIRQAPGKGLEWVASISSRSGSHINYVDSVKGRFTISRDNARDLLYLQMNSLRVDDSALYYCARDRRSGTSPLPLDVWGQGTTVTVFS VL: DQSALTQPASVSGSPGQSITISCTGTGSDIGGYNFVSWYQQYPGKAPKLIIYEVRIRASGVSNRFSGSKSGNTASLTISGLQAEDEADYYCNSYSIHSPWVFGGGTKLTVLR	0.301
2. 8.11G (antibody, V domains shown) VH: QVQLQESGPGLVKPSETLSLTCSISGVSTRNYYWSWIRQSPGKGLEWIGYIFNIGTTNYNPSLKSRLTISVDTSKNQFSLKITSVTAADTAVYYCASGFEYGDYTFDYWGQGTPVTVSS VL: EIVLTQSPATLSVSPGGRASLSCRASQSIGDKLSWYQQKPGQAPRLVIYGAYTRATDISPRFSGSRSGTDFNLTISRMQSGDFAVYFCQQYENWPRTFGQGTKLEIKR	3.25
3. 36.9F (antibody, V domains shown) VH: EVQLVQSGGGLVKAGGSLKLSCGASGFTFSSYSMSWVRQAPGKGLEWVSYISSGGSSIHYADSVKGRFTISRDNAKNSLYLQMKNLRVDDTGRYYCVRDPRSGISGRYGMDVWGQGTTVTVSS VL: DIVMTQSPDSLAVSLGERATINCKSSQTVLFTSYYVAWYQQKPGQPPKLLFSGASSRESGVPDRFSAGGSGTDFYLTINSLQAEDVADYYCQQYHTPPFTFGGGTKLEIRR	6.98
